System: C. albicans ATCC MYA-1003(R) (strain G)
Experiment: MIC determination, in vitro antifungal assay (CLSI M27-A3)
Type: cell-based, Candida albicans
Conditions: Candida albicans, 48 h, MIC-0, 48 h at 35° C., read-out: MIC
Value type: MIC

Provide the documented MIC with C. albicans ATCC MYA-1003(R) (strain G) as the system for N=C(N)N/N=C/c1ccc(-c2ccc(/C=N/NC(=N)N)cc2)cc1 [Compound 24b] 15.6 µg/mL

GET /values?readout=MIC&system=C. albicans ATCC MYA-1003(R) (strain G)&item= CC(C)(C)N/N=C/c1ccc(-c2ccc(/C=N/NC(C)(C)C)cc2)cc1 [Compound 23b] > 31.3 µg/mL

API: value(readout=MIC, system=C. albicans ATCC MYA-1003(R) (strain G)) for record C/C(=N\Nc1ccc(F)cc1)c1ccc(-c2ccc(/C(C)=N/Nc3ccc(F)cc3)cc2)cc1 [Compound 17c] 7.8 µg/mL

Provide the documented MIC with C. albicans ATCC MYA-1003(R) (strain G) as the system for COc1ccc(N/N=C/c2ccc(-c3ccc(/C=N/Nc4ccc(OC)cc4)cc3)cc2)cc1 [Compound 15b] 7.8 to 15.6 µg/mL

API: value(readout= MIC, system= C. albicans ATCC MYA-1003(R) (strain G), query= Fc1cccc(N/N=C/c2ccc(-c3cccc(/C=N/Nc4cccc(F)c4)c3)cc2)c1 [Compound 12a] ) 7.8 to 15.6 µg/mL

Record CC(C)Oc1ccc(N/N=C/c2ccc(-c3ccc(/C=N/Nc4ccc(OC(C)C)cc4)cc3)cc2)cc1 [Compound 16b] : what is its MIC with C. albicans ATCC MYA-1003(R) (strain G)? > 31.3 µg/mL

Return MIC measured with C. albicans ATCC MYA-1003(R) (strain G) given this compound: Clc1ccc(N/N=C/c2ccc(-c3ccc(/C=N/Nc4ccc(Cl)cc4)cc3)cc2)cc1 [Compound 18b] > 31.3 µg/mL

API: value(readout=MIC, system=C. albicans ATCC MYA-1003(R) (strain G)) for record Brc1ccc(N/N=C/c2ccc(-c3cccc(/C=N/Nc4ccc(Br)cc4)c3)cc2)cc1 [Compound 19a] 31.3 µg/mL
